Organism: Rattus norvegicus
protocol_details: DrugMatrix - Regimen: Daily Repeat
Assay type: toxicity, organism-based, Sprague-Dawley
Parameters: regimen Daily Repeat, gender Male, age 6-8 weeks
run_conditions: in vivo, po, 10 mg/kg, 72 h, tissue Plasma, route oral GAVAGE, dose level Low, time 3 day, […]

molecule	POTASSIUM
CC(C)CC(N(C)C)C1(c2ccc(Cl)cc2)CCC1 (centres undefined)	6.44 MEQ/L
CCOC(=O)C1=C(C)NC(C)=C(C(=O)OC)C1c1cccc([N+](=O)[O-])c1 (centres undefined)	6.13 MEQ/L
COCCOC(=O)C1=C(C)NC(C)=C(C(=O)OC(C)C)C1c1cccc([N+](=O)[O-])c1 (centres undefined)	6.2 MEQ/L
COc1ccc2cc([C@H](C)C(=O)O)ccc2c1	6.09 MEQ/L

---

Organism: Rattus norvegicus
protocol_details: DrugMatrix - Regimen: Daily Repeat
Format: toxicity, organism-based, Sprague-Dawley
Parameters: regimen Daily Repeat, gender Male, age 6-8 weeks
run_conditions: in vivo, po, 0 mg/kg, 120 h, tissue Blood, route oral GAVAGE, dose level Control, time 5 day, vehicle .5 % CMC

compound	ERYTHROCYTE COUNT / x10E6/uL
CC(=O)CC(c1ccccc1)c1c(O)c2ccccc2oc1=O (stereo not drawn)	5.66
CO[C@H]1/C=C/O[C@@]2(C)Oc3c(C)c(O)c4c(c3C2=O)C2=NC3(CCN(CC(C)C)CC3)NC2=C(NC(=O)/C(C)=C\C=C\[C@H](C)[C@H](O)[C@@H](C)[C@@H](O)[C@@H](C)[C@H](OC(C)=O)[C@@H]1C)C4=O	5.71
OC(CCN1CCCCC1)(c1ccccc1)C1CCCCC1 (stereo not drawn)	5.65
Clc1ccc2c(c1)C(N1CCNCC1)=Nc1ccccc1O2	5.66
CN1CCC(=C2c3ccccc3C=Cc3ccccc32)CC1	5.88
CN1C(=O)COc2c(C(=O)NC3CN4CCC3CC4)cc(Cl)cc21 (stereo not drawn)	5.79
CC(C)[C@H]1CC[C@H](C(=O)N[C@H](Cc2ccccc2)C(=O)O)CC1 [NATEGLINIDE]	5.65
C[C@]1(Cn2ccnn2)[C@H](C(=O)O)N2C(=O)C[C@H]2S1(=O)=O	5.78

---

The entries below come with measured TOTAL BILIRUBIN values attached.
Species on record: Rattus norvegicus
protocol_details: DrugMatrix - Regimen: Daily Repeat
Assay type: toxicity, organism-based, Sprague-Dawley
Parameters: regimen Daily Repeat, gender Male, age 6-8 weeks
run_conditions: in vivo, po, 0 mg/kg, 72 h, tissue Plasma, route oral GAVAGE, dose level Control, time 3 day, […]

compound	TOTAL BILIRUBIN
CCOC(=O)C(C)(C)Oc1ccc(Cl)cc1 [CLOFIBRATE]	0.22 mg/dL
CC(C)Cc1ccc(C(C)C(=O)O)cc1 (stereo not given)	0.27 mg/dL
COCCOC(=O)C1=C(C)NC(C)=C(C(=O)OC(C)C)C1c1cccc([N+](=O)[O-])c1 (stereo not given)	0.2 mg/dL
COc1ccc2cc([C@H](C)C(=O)O)ccc2c1	0.2 mg/dL
O=C(O)Cc1ccccc1Nc1c(Cl)cccc1Cl	0.18 mg/dL

---

Species: Rattus norvegicus
protocol_details: DrugMatrix - Regimen: Daily Repeat
Type: toxicity, organism-based, Sprague-Dawley
Design: regimen Daily Repeat, gender Male, age 6-8 weeks
run_conditions: in vivo, po, 900 mg/kg, 72 h, tissue Blood, route oral GAVAGE, dose level High, time 3 day, […]

smiles	ABSOLUTE MONOCYTE / cells/µL
Clc1ccc(Cl)cc1	310

The measured values listed here are drawn from ChEMBL document CHEMBL3885881.
